This collection of values is drawn from patent US8791162B2.

- EXPERIMENT: Rhesus IV Pharmacokinetics
- Type: in vivo, rhesus monkeys
- EXPERIMENTAL_CONTEXT: rhesus monkey, plasma; male rhesus monkeys, 0.75 mg/kg IV; read-out: Vdss
REPORTED_PROPERTY: Vd (L/kg)

molecule=[2H]C([2H])([2H])C(F)(C[C@H](N[C@@H](c1ccc(-c2ccc(S(C)(=O)=O)cc2)cc1)C(F)(F)F)C(=O)NC1(C#N)CC1)C([2H])([2H])[2H] reported_property=Vd measured_value=1.7
molecule="CC(C)(F)C[C@H](N[C@@H](c1ccc(-c2ccc(S(C)(=O)=O)cc2)cc1)C(F)(F)F)C(=O)NC1(C#N)CC1 [Example D0-ODN, reference compound]" reported_property=Vd measured_value=1.9

----------
- EXPERIMENT: Rhesus IV Pharmacokinetics
- Format: in vivo, rhesus monkeys
- EXPERIMENTAL_CONTEXT: rhesus monkey, plasma; male rhesus monkeys n=4, 0.75 mg/kg IV, 96.00 hours
REPORTED_PROPERTY: concentration at 96 h (nM)

chem_smiles=[2H]C([2H])([2H])C(F)(C[C@H](N[C@@H](c1ccc(-c2ccc(S(C)(=O)=O)cc2)cc1)C(F)(F)F)C(=O)NC1(C#N)CC1)C([2H])([2H])[2H] reported_property="concentration at 96 h" measured_value=13.8

----------
List of concentration at 8 h values.
- EXPERIMENT: Rhesus IV Pharmacokinetics
- Format: in vivo, rhesus monkeys
- EXPERIMENTAL_CONTEXT: rhesus monkey, plasma; male rhesus monkeys n=4, 0.75 mg/kg IV, 8.00 hours
REPORTED_PROPERTY: concentration at 8 h

compound=[2H]C([2H])([2H])C(F)(C[C@H](N[C@@H](c1ccc(-c2ccc(S(C)(=O)=O)cc2)cc1)C(F)(F)F)C(=O)NC1(C#N)CC1)C([2H])([2H])[2H] reported_property="concentration at 8 h" measured_value="633 nM"
compound="CC(C)(F)C[C@H](N[C@@H](c1ccc(-c2ccc(S(C)(=O)=O)cc2)cc1)C(F)(F)F)C(=O)NC1(C#N)CC1 [Example D0-ODN, reference compound]" reported_property="concentration at 8 h" measured_value="250 nM"

----------
Each entry below lists one item and its recorded concentration at 0.5 h value.
- EXPERIMENT: Rhesus IV Pharmacokinetics
- Assay type: in vivo, rhesus monkeys
- EXPERIMENTAL_CONTEXT: rhesus monkey, plasma; male rhesus monkeys n=4, 0.75 mg/kg IV, 0.50 hours
REPORTED_PROPERTY: concentration at 0.5 h

compound="CC(C)(F)C[C@H](N[C@@H](c1ccc(-c2ccc(S(C)(=O)=O)cc2)cc1)C(F)(F)F)C(=O)NC1(C#N)CC1 [Example D0-ODN, reference compound]" reported_property="concentration at 0.5 h" measured_value="872 nM"
compound=[2H]C([2H])([2H])C(F)(C[C@H](N[C@@H](c1ccc(-c2ccc(S(C)(=O)=O)cc2)cc1)C(F)(F)F)C(=O)NC1(C#N)CC1)C([2H])([2H])[2H] reported_property="concentration at 0.5 h" measured_value="793 nM"

----------
- EXPERIMENT: Rhesus IV Pharmacokinetics
- Type: in vivo, rhesus monkeys
- EXPERIMENTAL_CONTEXT: rhesus monkey, plasma; male rhesus monkeys, 0.75 mg/kg IV; read-out: AUC(0-x)
REPORTED_PROPERTY: AUC (µM·h)

compound="CC(C)(F)C[C@H](N[C@@H](c1ccc(-c2ccc(S(C)(=O)=O)cc2)cc1)C(F)(F)F)C(=O)NC1(C#N)CC1 [Example D0-ODN, reference compound]" measured_value=5.71
compound=[2H]C([2H])([2H])C(F)(C[C@H](N[C@@H](c1ccc(-c2ccc(S(C)(=O)=O)cc2)cc1)C(F)(F)F)C(=O)NC1(C#N)CC1)C([2H])([2H])[2H] measured_value=17.7
